Cited source: PubChem BioAssay AID1902

- TARGET OR SYSTEM: S. pyogenes SKKanGAS, kanamycin survival, BacTiterGlo, 6 h
- RUN DESCRIPTION: S. pyogenes SKKanGAS kanamycin growth inhibitors – SKKanGAS strain, luminescence, dose confirmation, streptokinase promoter inhibitor project, dose response (AID 1902);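 also: lower survival reflects blocked streptokinase promoter driving kanamycin resistance gene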
Calls of active or inactive are those of the source.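 The calls were made as follows: active = EC50 no more than a set limit of log units above the highest dose; inactive = the rest.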
A correct response names exactly one class from t for active, f for inactive

Task: Check the results log: what was the call for Cc1nc2c(=O)n(C)c(=O)nc-2n(C)n1 ?
Result: t

Task: Check the results log: what was the call for CCCCn1c(=O)c(C(=O)NCc2ccccc2)c(O)c2ccccc21 ?
Result: t

Task: Check the results log: what was the call for COc1ccc(CN(C)S(=O)(=O)c2ccc3c(c2)OCCO3)cc1 ?
Result: f

Task: Check the results log: what was the call for COc1ccccc1-n1c(SCC(=O)Nc2ccc(C)cc2)nc(O)cc1=O ?
Result: t

Task: Check the results log: what was the call for Cc1ccc(-c2cc(C(=O)N3CCN(c4ccccc4O)CC3)c3ccccc3n2)cc1 ?
Result: t

Task: Check the results log: what was the call for CCCCCCCn1c(=O)c(C(=O)Nc2cnccn2)c(O)c2ccccc21 ?
Result: t

Task: Check the results log: what was the call for CC1=NN(/C(=N\c2nnc(C)s2)Nc2ccc(C(C)(C)C)cc2)[C@H](c2ccc(C)cc2)S1 ?
Result: t

Task: Check the results log: what was the call for CC(Oc1cccc(Cl)c1)C(=O)Nc1ccccc1N1CCCCC1 (configuration not stated) ?
Result: t

Task: Check the results log: what was the call for Cc1ccccc1NS(=O)(=O)c1ccc(C)c(C(=O)N2CCOCC2)c1 ?
Result: f

Task: Check the results log: what was the call for CCc1noc(C)c1C(=O)OCC(=O)NC(=O)c1ccccc1 ?
Result: f

Task: Check the results log: what was the call for Cc1cc(C)n(C(=O)/C(C#N)=N/Nc2cc(Cl)cc(Cl)c2)n1 ?
Result: t

Task: Check the results log: what was the call for COc1ccc(-c2oc(NC(=O)CSc3ncn[nH]3)c(C#N)c2-c2ccc(OC)cc2)cc1 ?
Result: t

Task: Check the results log: what was the call for Cc1ccc(C23CC4CC(CC(C(=O)N5CCN(C)CC5)(C4)C2)C3)cc1 ?
Result: f

Task: Check the results log: what was the call for FC(F)(F)c1cccc(NC(=S)NNC(=S)Nc2ccc(Cl)cc2)c1 ?
Result: t

Task: Check the results log: what was the call for Cc1ccc(-c2cc(C(F)F)nc(N3CCC(C)CC3)n2)cc1 ?
Result: t

Task: Check the results log: what was the call for O=C1/C(=C/c2cccnc2)SC(=NCc2ccccc2)N1Cc1ccccc1 ?
Result: t

Task: Check the results log: what was the call for CCOC(=O)c1c(S(=O)(=O)N2CCCCCC2)c(C)n(C)c1C ?
Result: f

Task: Check the results log: what was the call for Cc1noc(C)c1-c1nnc(-c2ccc(OC(F)(F)F)cc2)o1 ?
Result: f

Task: Check the results log: what was the call for O=C(NC(=S)NNC(=O)c1cccs1)c1ccco1 ?
Result: t

Task: Check the results log: what was the call for C/C(=N\NC(=O)CSc1nc(C)[nH]c1[N+](=O)[O-])c1ccc(F)cc1 ?
Result: f

Task: Check the results log: what was the call for COc1cc(C(=O)NC(=S)Nc2ccc(NC(=O)c3ccco3)cc2)cc(OC)c1OC ?
Result: t

Task: Check the results log: what was the call for CC(C)c1ccccc1OCC(=O)NC1CCCc2ccccc21 (configuration not stated) ?
Result: t
